# ASSAY_INFO: qHTS Assay for inhibitors of the human cytomegalovirus (HCMV)
# STATED_CONDITIONS: HFF cells, HCMV-luciferase reporter, 72 h; at 57.5 µM
The whole screen tested about 410,000 compounds, of which about 18,000 (4.4%) were called active. Not shown: some 7% with an inconclusive outcome. Rule as the data show it: active = activity change below about -60%; inconclusive = no clear call, values can overlap the other calls; inactive = above about -39%. The list comes from a sample in which actives are over-represented; it also holds close analogues and randomly drawn compounds.
Answer with one of the outcomes active, inactive

QUERY: I'd appreciate the recorded outcome for "O=C(N/N=C/c1cccnc1)c1cc2ccccc2cc1O" from this test.
RESULT: active

QUERY: Please give the result for "O=C(N/N=C/c1cccc2cccnc12)[C@H]1C[C@@H]1c1ccccc1" too.
RESULT: inactive

QUERY: Param item: C=C1C(=O)[C@]23C[C@H]1CCC2[C@@]1(C)C(C[C@@H]3O)[C@](C)(C(=O)O)CC[C@@H]1O (stereo partly drawn)
RESULT: active

QUERY: Please answer likewise for CC(NC(=O)c1cc2c(=O)n3ccccc3nc2n(C(C)C)c1=N)c1ccccc1 (stereo not drawn)
RESULT: inactive

QUERY: Also "CN(C)c1cc[n+](Cc2ccccc2)cc1" , if possible.
RESULT: active

QUERY: And "O=C(CSc1ccsc1[N+](=O)[O-])N1CCCCC1" ?
RESULT: inactive

QUERY: Same lookup for "CC(=O)Nc1ccc(NC(=O)CSc2nnc3c4cc(Br)ccc4n(C)c3n2)cc1" , please.
RESULT: inactive

QUERY: Same thing, different molecule: CC1CC(C)CN(C(=O)CSc2ccsc2[N+](=O)[O-])C1 (stereo not drawn)
RESULT: active

QUERY: "O=C(CSc1cccc2cccnc12)N/N=C/c1cccnc1" ?
RESULT: active

QUERY: Repeat with "Cc1c(Cl)cccc1NC(=O)CSc1ccc(-c2cccnc2)nn1"
RESULT: inactive
